Give Population Normal (%) for every item shown.
tested on: U2OS; assay: Multiplex assay against U2OS; format: toxicity, cell-based; conditions: human, 24 h, 10 µM, compound concentration 10 uM, replicate 2
Numeric answer only, unit % assumed.

Name the reported Population Normal (%) value associated with the compound O=C(Nc1ccc(-n2nc(-c3cccnc3)cc2C(F)(F)F)cn1)c1ccc(-c2ccccc2)c(F)c1 [BI 2049] 96

Continue with `O=C(Nc1ccc(-c2ccnc(Nc3ccc(N4CCOCC4)cc3)n2)cc1)[C@@H]1CCCN1` 98

Now this one: O=C(Cc1ccc(-c2ccc(OCCN3CCOCC3)cc2)cn1)NCc1ccccc1 [TIRBANIBULIN] 89

Follow-up item: O=C1NC(=O)C(c2cnc3ccccn23)=C1c1cn2c3c(cc(F)cc13)CN(C(=O)N1CCCCC1)CC2 [LY-2090314] 95

Proceed to `O=C1N/C(=N/c2ccccc2F)S/C1=C\c1ccc(C(=O)O)cc1` 94

Same question, C=CCn1c(=O)c2cnc(Nc3ccc(N4CCN(C)CC4)cc3)nc2n1-c1cccc(C(C)(C)O)n1 [ADAVOSERTIB] this time 77

Also, COc1ccc(-c2ccc3c(N4CCOCC4)nc(N4C[C@@H](C)O[C@@H](C)C4)nc3n2)cc1CO [Ku-0063794] please. 61

Now consider `COc1ccc(S(=O)(=O)N(CCO)c2ccccc2CN(C)C/C=C/c2ccc(Cl)cc2)cc1.O=P(O)(O)O` . 91

Let us now turn to `CCCS(=O)(=O)c1nc(NC2CC2)cc(-c2ccc3c(ccn3C3CC(C)(C)NC(C)(C)C3)c2)n1` 92

Same question for CN1CCN(C(=O)C(C)(C)c2ccc(C(=O)Nc3cn4cc(-c5ccncc5)ccc4n3)cc2)CC1 [T3-CLK] please. 87

Record: CCCS(=O)(=O)Nc1ccc(F)c(C(=O)c2c[nH]c3ncc(Cl)cc23)c1F [PLX-4720] 92

Next up: `Cl.Oc1ccc2c3c1O[C@H]1c4[nH]c5c(c4C[C@@]4(O)[C@@H](C2)N(CC2CC2)CC[C@]314)C[C@@]1(O)[C@H]2Cc3ccc(O)c4c3[C@@]1(CCN2CC1CC1)[C@H]5O4` 86

Try this compound too: `Cc1cc(C)c(S(=O)(=O)N(Cc2ccc(-c3cccc(S(C)(=O)=O)c3)cc2)Cc2ccc(C(F)(F)F)o2)c(C)c1` 89

Now consider Cn1nc(C(F)(F)F)cc1-c1cnc(N2CCc3cc(S(=O)(=O)Nc4c(F)cc(Cl)cc4F)cc(N4CCCC4=O)c32)nc1 [TP-020] . 92

// query: CCOC(=O)c1c(C)[nH]c2ccc3c(c12)CN1CCc2cc(OC)ccc2C1O3 (configuration not stated) 88

Try the compound C=C1/C(=C\C=C2/CCC[C@]3(C)[C@@H]([C@H](C)/C=C/[C@H](C)C(C)C)CC[C@@H]23)C[C@@H](O)C[C@@H]1O [DOXERCALCIFEROL] 96

Lookup `Cl.O=c1c2cccn2c2ccccc2n1CCCN1CCC(c2ccc(Cl)cc2)CC1` 92

Continue with CCCn1c(=O)c2[nH]c(-c3cnn(Cc4cccc(C(F)(F)F)c4)c3)nc2n(CC)c1=O [GS 6201] 96

Again, but for COCC(=O)NC/C=C/c1ccc2ncnc(Nc3ccc(Oc4ccc(C)nc4)c(C)c3)c2c1 [CP-724714] 88

Moving on to the next compound: CCN1CCN(c2ccc(Nc3cc(N(C)C(=O)Nc4c(Cl)c(OC)cc(OC)c4Cl)ncn3)cc2)CC1 [INFIGRATINIB] 90

And the next one, CCn1cc(-c2ccnc3[nH]c(-c4cccc(CN(C)C)c4)cc23)c(-c2ccc(NC(=O)N(C)C)cc2)n1 [GSK-1070916] ? 81

Query `CNC(=O)c1ccc(Nc2nc(OC3CCCC3)c3c(-c4ccc5nc(C)oc5c4)c[nH]c3n2)c(OC)c1` next 85

Could you do the same for `CNc1cc(Oc2cc(C(=O)Nc3cc(N4CCN(C)CC4)cc(C(F)(F)F)c3)ccc2C)ncn1` , please? 51

Let us now turn to CN1CCC(=C2c3ccccc3CC(=O)c3sccc32)CC1.O=C(O)/C=C/C(=O)O [KETOTIFEN FUMARATE] 97

// next record `S=C(NCCCc1c[nH]cn1)NCCCN(Cc1ccc(Cl)c(Cl)c1)c1ccc(Br)cn1` 74

And what about the compound `COC(=N)c1nc2ccc3ncnc(Nc4ccc(OC)cc4F)c3c2s1` ? 92

Same again, this time with CN1CCN(C(=O)C(C)(C)c2ccc(C(=O)Nc3cn4cc(-c5cc(C(C)(C)C)cc(C(C)(C)C)c5)ccc4n3)cc2)CC1 [T3-CLK-N] 85

And then `CCN1CCN(Cc2ccc(Nc3ncc(F)c(-c4cc(F)c5nc(C)n(C(C)C)c5c4)n3)nc2)CC1.CS(=O)(=O)O` , what is it? 79

Try `O=C(Nc1cccnn1)N1CCC(=Cc2cccc(Oc3ccc(C(F)(F)F)cn3)c2)CC1` next. 92

Thanks! And CN1C2CCC1CC(OC(c1ccc(F)cc1)c1ccc(F)cc1)C2.Cl (configuration not stated) ? 96

Then `Cc1ccc2nc(NCCN)c3ncc(C)n3c2c1.O=C(O)C(F)(F)F.O=C(O)C(F)(F)F` ? 85

And COc1cccc2cc(-c3nc([C@H]4CC[C@H](C(=O)O)CC4)n4ncnc(N)c34)[nH]c12 [OSI-027] ? 88

====

system: HEK-293T; test: Multiplex assay against HEK293T; type: toxicity, cell-based; details: human, 12 h, 1 µM, compound concentration 1 uM, replicate 1;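 also: share of the cells with healthy nuclei that show this phenotype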
readout_name: Population Tubulin-Different-Phenotype (%)
Write the answer as a number in %, unit excluded.

I'd like to know its Population Tubulin-Different-Phenotype (%). The molecule in question is `O=C(Nc1ccc(Cl)cc1)Nc1cccc(-c2cccc(N3CCCC3)n2)c1` 46

One more molecule: `O=C1N/C(=N/c2ccccc2F)S/C1=C\c1ccc(C(=O)O)cc1` 21

Now this one: O=C(Nc1ccc(-n2nc(-c3cccnc3)cc2C(F)(F)F)cn1)c1ccc(-c2ccccc2)c(F)c1 [BI 2049] 10

Likewise for `COc1cc(N2CCN(C)CC2)ccc1Nc1ncc2c(n1)N(C)c1ccccc1C(=O)N2C` ? 40

Do the same for `COc1ccc(S(=O)(=O)N(CCO)c2ccccc2CN(C)C/C=C/c2ccc(Cl)cc2)cc1.O=P(O)(O)O` please 87

// next record CCOc1cc2ncc(C#N)c(Nc3ccc(OCc4ccccn4)c(Cl)c3)c2cc1NC(=O)/C=C/CN(C)C [NERATINIB] 55

Try the molecule C=CCn1c(=O)c2cnc(Nc3ccc(N4CCN(C)CC4)cc3)nc2n1-c1cccc(C(C)(C)O)n1 [ADAVOSERTIB] 2

Moving on to the next molecule: `CCOc1cc(C(=O)N2CCC(N3CCN(C)CC3)CC2)ccc1Nc1ncc2c(n1)N(C1CCCC1)c1ccccc1C(=O)N2C` 81

====

What Population Mitochondria Different-Phenotype (%) was measured for each of the following?
system: U2OS; assay: Multiplex assay against U2OS; assay type: toxicity, cell-based; settings: human, 24 h, 1 µM, compound concentration 1 uM, replicate 1
Note: unit % is implicit; provide only the numeric part.

Population Mitochondria Different-Phenotype (%) lookup needed for `S=C(NCCCc1c[nH]cn1)NCCCN(Cc1ccc(Cl)c(Cl)c1)c1ccc(Br)cn1` , thanks. 10

Note, next up: `CCc1cccc(CC)c1NC(=O)c1nn(C)c2c1CCc1cnc(Nc3ccc(C(=O)NC4CCN(C)CC4)cc3OC(F)(F)F)nc1-2` 18

And `COc1ccc(S(=O)(=O)N(CCO)c2ccccc2CN(C)C/C=C/c2ccc(Cl)cc2)cc1.O=P(O)(O)O` ? 100

Request: `Cl.Oc1ccc2c3c1O[C@H]1c4[nH]c5c(c4C[C@@]4(O)[C@@H](C2)N(CC2CC2)CC[C@]314)C[C@@]1(O)[C@H]2Cc3ccc(O)c4c3[C@@]1(CCN2CC1CC1)[C@H]5O4` 12

Try `Cn1nc(C(F)(F)F)cc1-c1cnc(N2CCc3cc(S(=O)(=O)Nc4c(F)cc(Cl)cc4F)cc(N4CCCC4=O)c32)nc1` next. 10

Same read-out for `COc1ccc(-c2ccc3c(N4CCOCC4)nc(N4C[C@@H](C)O[C@@H](C)C4)nc3n2)cc1CO` ? 19

Please do the same for `C=C1/C(=C\C=C2/CCC[C@]3(C)[C@@H]([C@H](C)/C=C/[C@H](C)C(C)C)CC[C@@H]23)C[C@@H](O)C[C@@H]1O` as well. 8

Query COc1cc2ncnc(Nc3ccc(F)c(Cl)c3)c2cc1NC(=O)/C=C/CN1CCCCC1 [DACOMITINIB ANHYDROUS] next 5

Can you handle `COc1cc(N2CCN(C)CC2)ccc1Nc1ncc2c(n1)N(C)c1ccccc1C(=O)N2C` next? 8

Consider next the compound CCOC(=O)c1c(C)[nH]c2ccc3c(c12)CN1CCc2cc(OC)ccc2C1O3 (stereo unspecified) in the same way. 68

Check `O=C(Nc1cccnn1)N1CCC(=Cc2cccc(Oc3ccc(C(F)(F)F)cn3)c2)CC1` too. 11
